This section presents compounds with their documented pEC50 values.
tested on: Hepatitis B virus; assay: Inhibition of HBV M204I mutant transfected in B1 cell line; type: functional, organism-based
pEC50: −log10 of the molar value.

- smiles-representation: "O=c1[nH]c(=O)n(COCCO)cc1C(F)(F)F"
  result-qualifier: "="
  pEC50: 4.41
- smiles-representation: "Nc1nc(NC2CC2)c2ncn([C@H]3C=C[C@@H](CO)C3)c2n1"
  result-qualifier: "="
  pEC50: 5.47
- smiles-representation: "O=c1[nH]c(=O)n(COCCO)cc1Cl"
  result-qualifier: "="
  pEC50: 5.35
- smiles-representation: "Nc1ccn([C@@H]2CS[C@H](CO)O2)c(=O)n1"
  result-qualifier: "<"
  pEC50: 4.36
- smiles-representation: "O=c1[nH]c(=O)n(COCCO)cc1Br"
  result-qualifier: "="
  pEC50: 4.73

---

tested on: Hepatitis B virus; assay: Inhibition of wild type HBV transfected in human hepatoblastoma 2.2.15 cells; assay type: functional, organism-based; conditions: HepG2 2.2.15

- smiles-representation: "O=c1cnn(COCCO)c(=O)[nH]1"
  EC50: "> 53 µM"
- smiles-representation: "O=c1ccn(COCCO)c(=S)[nH]1"
  EC50: "> 49.5 µM"
- smiles-representation: "CCc1cn(COCCO)c(=S)[nH]c1=O"
  EC50: "> 47.8 µM"
